Below: a set of entries, each annotated with reported % inhibition ApPOL 90'.
target: P. falciparum apicoplast DNA polymerase (Pf-apPOL) (Plasmodium falciparum, UniProt Q8ILY1); assay: Fluorescence-based high-throughput DNA polymerase assay (molecular beacon), primary screen and dose-response; assay type: biochemical; conditions: DRC-2, 90', concentration 40;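 also: test concentration in µM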
Sequence (Q8ILY1 entry or part of it): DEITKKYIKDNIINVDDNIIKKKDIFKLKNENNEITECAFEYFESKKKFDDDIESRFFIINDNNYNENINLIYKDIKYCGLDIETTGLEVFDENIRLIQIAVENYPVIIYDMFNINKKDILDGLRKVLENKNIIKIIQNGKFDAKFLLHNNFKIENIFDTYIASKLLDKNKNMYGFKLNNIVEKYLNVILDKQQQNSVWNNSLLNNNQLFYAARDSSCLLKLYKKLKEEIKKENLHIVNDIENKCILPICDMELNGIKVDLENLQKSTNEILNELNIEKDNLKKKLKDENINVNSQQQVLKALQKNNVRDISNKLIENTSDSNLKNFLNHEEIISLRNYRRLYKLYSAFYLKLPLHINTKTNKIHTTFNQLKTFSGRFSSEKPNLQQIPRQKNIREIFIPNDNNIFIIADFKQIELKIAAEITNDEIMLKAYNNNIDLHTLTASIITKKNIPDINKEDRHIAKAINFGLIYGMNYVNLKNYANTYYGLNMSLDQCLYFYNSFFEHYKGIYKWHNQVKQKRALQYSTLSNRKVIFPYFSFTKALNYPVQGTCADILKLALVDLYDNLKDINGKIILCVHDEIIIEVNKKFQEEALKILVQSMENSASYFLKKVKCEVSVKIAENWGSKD
Please respond with the number in % and leave the unit unwritten.

Use the examples below as a reference point.
{"columns": ["COMPOUND", "UNITS LABEL", "% inhibition ApPOL 90'"],
 "data": [
  ["O=c1cc(-c2ccccc2)oc2c(O)c(O)ccc12 [Molecule 84, Oc1ccc2c(c1O)oc(cc2=O)c1ccccc1]", "%", 26],
  ["O=C(Nc1nnc(-c2ccno2)o1)c1ccc2ncsc2c1 [Molecule 62, O=C(c1ccc2c(c1)scn2)Nc1nnc(o1)c1ccno1]", "%", 54],
  ["O=[N+]([O-])c1cc2c(cc1CN1CCN(c3cccc(Cl)c3)CC1)OCO2 [KU0005610]", "%", 45],
  ["O=C(c1c[nH]c2ncccc12)N1CCCCCC1 [Molecule 51, O=C(c1c[nH]c2c1cccn2)N1CCCCCC1]", "%", 45],
  ["CC1=NNC(=O)C1Oc1ccc(Cl)cc1Cl (centres unmarked) [KU0265591]", "%", 37],
  ["O=[N+]([O-])c1cc2c(cc1CN1CCCCCC1)OCO2 [KU0004987]", "%", 33],
  ["COc1ccc(C(=O)Nc2cccc(-c3nc4ncccc4o3)c2)cc1[N+](=O)[O-] [KU0063313]", "%", 68]
]}

Now consider a different compound.
Query string: GET /values?readout=% inhibition ApPOL 90'&item= Oc1ccc(N=Nc2ccccc2)c(O)c1 [Molecule 80, Oc1ccc(c(c1)O)N=Nc1ccccc1]
Result string: 38
